- Measured Target: T1, mIL2-his (mouse, UniProt P04351 21-169)
- T1 construct: also called wild-type mouse IL-2 (with a his-tag); not shown: his-tag
- T1 sequence (looked up): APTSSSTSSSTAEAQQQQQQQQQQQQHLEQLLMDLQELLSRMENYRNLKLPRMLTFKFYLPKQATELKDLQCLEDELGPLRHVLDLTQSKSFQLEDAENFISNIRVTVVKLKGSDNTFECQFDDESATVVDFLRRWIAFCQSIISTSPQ
- Assay Name: BLI ForteBio, Ab on Protein A sensor
Here the recorded pKd is given for each entry.
# pKd is unitless: minus log10 of the molar concentration; print number only

Value lookup for pKd; key = S4B6 chimeric antibody (antibody, human IgG1, V domains shown, also called chS4B6) VH: EVQLQESGAELVRPGTSVKLSCKVSGDTITAYYLHFVRQRPGQGLEWIGRIDPEDDSTKYAENFKNKATFTADASSNTAYLRLSSLTSEDTATYFCTTVTFYYSRELRWFAYWGQGTLVTVSS VL: DIQVTQSPASLSASLEEIVTITCQASQDIGNYLSWYQQKLGKSPQLLIHSATSLADGVPSRFSGSRSGTQYSLKINRLQVEDTGIYYCLQHYSTPYTFGAGTKLELK
9.00

Consider next the binder hS4B6-H1K1 (antibody, V domains shown, full antibody) VH: QVQLQESGPGLVKPSETLSLTCTVSGDTITAYYLHWIRQPPGKGLEWIGRIDPEDDSTKYAENFKNRVTISVDTSKNQFSLKLSSVTAADTAVYYCTTVTFYYSRELRWFAYWGQGTTVTVSS VL: DIVLTQSPGTLSLSPGERATLSCQASQDIGNYLSWYQQKPGQAPRLLIYSATSLADGIPDRFSGSRSGTDYTLTISRLEPEDFAVYYCLQHYSTPYTFGQGTKVEIK in the same way.
7.59
